I'd appreciate it if you could supply Mean IC50, cytotoxicity on DU145 PSMA cells, 48 h values for the items below.
Study system: human prostate specific membrane antigen (PSMA), full-length, on cells (human, UniProt Q04609 1-750)
Sequence (Q04609 whole entry): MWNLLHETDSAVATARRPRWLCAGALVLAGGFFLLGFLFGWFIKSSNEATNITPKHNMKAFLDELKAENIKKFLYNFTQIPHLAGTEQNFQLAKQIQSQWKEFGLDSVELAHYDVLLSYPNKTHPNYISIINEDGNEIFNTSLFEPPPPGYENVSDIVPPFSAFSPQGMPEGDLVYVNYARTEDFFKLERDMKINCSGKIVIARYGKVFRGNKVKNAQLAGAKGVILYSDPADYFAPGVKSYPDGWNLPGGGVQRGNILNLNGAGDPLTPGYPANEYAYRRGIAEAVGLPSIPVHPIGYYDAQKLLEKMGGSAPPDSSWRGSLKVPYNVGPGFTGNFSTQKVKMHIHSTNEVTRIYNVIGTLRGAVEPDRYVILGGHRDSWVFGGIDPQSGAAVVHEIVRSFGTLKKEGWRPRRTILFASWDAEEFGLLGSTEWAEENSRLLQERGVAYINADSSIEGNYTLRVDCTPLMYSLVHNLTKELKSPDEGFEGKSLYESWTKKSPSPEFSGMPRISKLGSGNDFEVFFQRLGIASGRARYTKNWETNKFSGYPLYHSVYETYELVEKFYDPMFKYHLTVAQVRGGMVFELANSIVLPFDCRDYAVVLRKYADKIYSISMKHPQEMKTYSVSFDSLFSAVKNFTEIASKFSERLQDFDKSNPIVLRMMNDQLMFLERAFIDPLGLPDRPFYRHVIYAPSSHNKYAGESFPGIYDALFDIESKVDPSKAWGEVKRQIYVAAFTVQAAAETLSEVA
Measurement notes: cell-based or functional assay
Numbers only, in nM.

* HiPEG B-His6 val-cit-PAB-MMAE (VHH, HiPEG val-cit-PAB-MMAE attached via the C-terminal His6-tag, DAR 0.9) VHH: EVQLLESGGGLVQPGGSLRLSCAASGFSFSSYAMSWVRQAPGKGLEWVSSIGENDGTTDYADSVKGRFTISRDNSKSMLYLQMNSLRVEDTAVYYCVKDGVHWGQGTLVTVSS | 2.7

Endpoint output: Mean IC50, cytotoxicity on DU145 PSMA cells, 48 h of HiPEG B-2-A-His6 val-cit-PAB-MMAE (bispecific antibody, HiPEG val-cit-PAB-MMAE attached via the C-terminal His6-tag, DAR 1) EVQLLESGGGLVQPGGSLRLSCAASGFSFSSYAMSWVRQAPGKGLEWVSSIGENDGTTDYADSVKGRFTISRDNSKSMLYLQMNSLRVEDTAVYYCVKDGVHWGQGTLVTVSSGGGGSGGGGSGGGGSGGGGSGGGGSGGGGSEVQLVESGGGVVQPGRSLRLSCAASGFSFSGYGMHWVRQAPGKGLEWVAYISYDGSNKYYADSVKGRFTISRDNSKNTLYLQMNSLRAEDTAVYYCAKDPAWGLRLGESSSYDFDIWGQGTMVTVSS . Value?
0.15

The measurements presented in this section are drawn from patent US20200131274A1.
